Every entry's value here was drawn from ChEMBL document CHEMBL5042479.

Here the recorded solubility kinetic at 2 h is given for each entry.
Assay: physchem
Conditions: PBS, pH 7.4
Description: Kinetic solubility of compound in PBS at pH 7.4 incubated for 2 hrs by HPLC-MS analysis
# number only, unit µM dropped from output

{"molecule": "OC1Cc2cc(Cl)ccc2-n2c(nnc2[C@H]2CC[C@H](Oc3ccccn3)CC2)C1 (stereo partly drawn)", "solubility kinetic at 2 h [µM]": 97.5}
{"molecule": "O[C@H]1Cc2cc(Cl)ccc2-n2c(nnc2[C@H]2CC[C@H](Oc3ccccn3)CC2)C1", "solubility kinetic at 2 h [µM]": 98.9}

Now examine the next entry.
Given O[C@@H]1Cc2cc(Cl)ccc2-n2c(nnc2[C@H]2CC[C@H](Oc3ccccn3)CC2)C1 , state its recorded solubility kinetic at 2 h.
95.1
